System: 253994-281-T-J1-PDC KRAS-mutant spheroids with HUVEC/MSC, viability
assay.comment: Anticancer human tumor 253994-281-T-J1-PDC patient-derived colorectal carcinoma cell line growth inhibition [KRAS2]
reported.conditions: second compound 1 µM; first compound 0.1 µM; active compounds read low
observation.type: viability, T/C (%)
The figure you give is taken to be in %; do not add the unit.

compound	measurement.target	viability, T/C, %
Cn1ncnc1[C@H]1c2n[nH]c(=O)c3cc(F)cc(c23)N[C@@H]1c1ccc(F)cc1 + C=CC(=O)N1CCN(c2nc(=O)n(-c3c(C)ccnc3C(C)C)c3nc(-c4c(O)cccc4F)c(F)cc23)C(C)C1	253994-281-T-J1-PDC KRAS-mutant spheroids with HUVEC/MSC, viability	103
COc1cc(Nc2ncc3c(n2)-c2ccc(Cl)cc2C(c2c(F)cccc2OC)=NC3)ccc1C(=O)O + CNCc1ccccc1-c1csc(C(C)Nc2nc(C)nc3cc(OC)c(OC)cc23)c1	253994-281-T-J1-PDC KRAS-mutant spheroids with HUVEC/MSC, viability	25.6
CC1COCCN1c1cc(-c2ccnn2C)c2ccnc(-c3ccn[nH]3)c2n1 (stereo not drawn) + CNCc1ccccc1-c1csc(C(C)Nc2nc(C)nc3cc(OC)c(OC)cc23)c1	253994-281-T-J1-PDC KRAS-mutant spheroids with HUVEC/MSC, viability	67.5
CN(C)C/C=C/C(=O)Nc1cc2c(Nc3ccc(F)c(Cl)c3)ncnc2cc1O[C@H]1CCOC1 + C=CC(=O)N1CCN(c2nc(=O)n(-c3c(C)ccnc3C(C)C)c3nc(-c4c(O)cccc4F)c(F)cc23)C(C)C1	253994-281-T-J1-PDC KRAS-mutant spheroids with HUVEC/MSC, viability	85
Cn1nccc1Nc1nccc(-c2cc3c(s2)C(C)(C)N(CCN2CCOCC2)C3=O)n1 + COc1cc2nc(C)nc(NC(C)c3cc(N)cc(C(F)(F)F)c3)c2cc1OC1CCOC1	253994-281-T-J1-PDC KRAS-mutant spheroids with HUVEC/MSC, viability	92.1
O=C(c1cc(Cc2n[nH]c(=O)c3ccccc23)ccc1F)N1CCN(C(=O)C2CC2)CC1 + CNCc1ccccc1-c1csc(C(C)Nc2nc(C)nc3cc(OC)c(OC)cc23)c1	253994-281-T-J1-PDC KRAS-mutant spheroids with HUVEC/MSC, viability	119
COC(=O)c1ccc2c(C(=Nc3ccc(N(C)C(=O)CN4CCN(C)CC4)cc3)c3ccccc3)c(O)[nH]c2c1 + COc1cc2nc(C)nc(NC(C)c3cc(N)cc(C(F)(F)F)c3)c2cc1OC1CCOC1	253994-281-T-J1-PDC KRAS-mutant spheroids with HUVEC/MSC, viability	71.6

Documented viability, T/C of CC(=O)OC12COC1CC(O)C1(C)C(=O)C(O)C3=C(C)C(OC(=O)C(O)C(NC(=O)OC(C)(C)C)c4ccccc4)CC(O)(C(OC(=O)c4ccccc4)C21)C3(C)C (stereo not drawn) + C=CC(=O)N1CCN(c2nc(=O)n(-c3c(C)ccnc3C(C)C)c3nc(-c4c(O)cccc4F)c(F)cc23)C(C)C1 : 29.6

----------
System: 253994-281-T-J1-PDC KRAS-mutant spheroids with HUVEC/MSC, viability
assay.comment: Anticancer human tumor 253994-281-T-J1-PDC cell line growth inhibition [KRAS2];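 also: spheroids exposed to agents for seven days before readout; percent of DMSO vehicle control viability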
reported.conditions: second compound 1 µM; first compound 0.000316 µM; active compounds read low
Response field label: string, one of 1 (viability, T/C strictly below 90%) or 0.

compound	assigned.class
CC(C)n1nc(-c2ccc3oc(N)nc3c2)c2c(N)ncnc21 + CC1OCC2(CCN(c3cnc(Sc4ccnc(N)c4Cl)c(N)n3)CC2)C1N	1
Cn1ncnc1[C@H]1c2n[nH]c(=O)c3cc(F)cc(c23)N[C@@H]1c1ccc(F)cc1 + C=CC(=O)N1CCN(c2nc(=O)n(-c3c(C)ccnc3C(C)C)c3nc(-c4c(O)cccc4F)c(F)cc23)C(C)C1	0

From here, focus on the item given below.
input: Check if viability, T/C falls below 90% for CC(=O)Nc1cccc(-n2c(=O)n(C3CC3)c(=O)c3c(Nc4ccc(I)cc4F)n(C)c(=O)c(C)c32)c1 + C=CC(=O)N1CCN(c2nc(OCC3CCCN3C)nc3c2CCN(c2cccc4cccc(C)c24)C3)CC1CC#N .
output: 1
